RECORDED ENDPOINT: IC50 (nM)
All answers are understood in nM, so give the number only.

Provide UniProtKB O08892 IC50 reading for CN1CCN(c2cc(N3CCCC3=O)ccc2F)CC1 [Example 30] .
4000

Provide UniProtKB O08892 IC50 reading for CN1CCN(c2cc(N3CCNS3(=O)=O)cc3ccoc23)CC1 [Example 50a] .
1400

Provide UniProtKB O08892 IC50 reading for COC(=O)N1CCN(c2cc(N3CCN(C)CC3)c3occc3c2)S1(=O)=O [Example 49a] .
460

Provide UniProtKB O08892 IC50 reading for CN1CCN(c2cc(N3CCOC3=O)cc3ccoc23)CC1 [Example 47a] .
450

Provide UniProtKB O08892 IC50 reading for COc1ccc(N2CCCC2=O)cc1N1CCN(C)CC1 [Example 5a] .
30000

Provide UniProtKB O08892 IC50 reading for CN1CCN(c2cc(N3CCCC3=O)cc3ccoc23)CC1 [Example 45] .
400

====

Where a name gives a salt, the structure may show the parent alone.
RECORDED ENDPOINT: IC50 (µM)
All answers are understood in µM, so give the number only.

Provide rat r5-HT1B receptors (Rattus norvegicus, UniProt P28564) IC50 reading for COc1ccc(N2CCCS2(=O)=O)cc1N1CCCN(C)CC1 [Example 18b] .
12

Provide rat r5-HT1B receptors (Rattus norvegicus, UniProt P28564) IC50 reading for C[C@@H]1CN(c2cc(N3CCCC3=O)cc3c2OCC3)C[C@H](C)N1 [Example 26b] .
9.6

Provide rat r5-HT1B receptors (Rattus norvegicus, UniProt P28564) IC50 reading for CN1CCN(c2cc(N3CCNS3(=O)=O)cc3ccoc23)CC1 [Example 50a] .
0.86

Provide rat r5-HT1B receptors (Rattus norvegicus, UniProt P28564) IC50 reading for CN1CCN(c2nc(N3CCN(c4ccccc4)C3=O)cc3ccoc23)CC1 [Example 82, hydrochloride] .
0.11

====

Give measured Kd for each item. Keep answers brief.
All answers are understood in µM, so give the number only.

Provide gp5-HT1B (Cavia porcellus) Kd reading for `CN1CCN(c2cc(N3CCCC3=O)cc3ccoc23)CC1` .
0.2

Provide gp5-HT1B (Cavia porcellus) Kd reading for `COc1ccc(N2CCCC2=O)cc1N1CCN(C)CC1` .
15

Provide gp5-HT1B (Cavia porcellus) Kd reading for CN1CCN(c2cc(N3CCNS3(=O)=O)cc3ccoc23)CC1 [Example 50a] .
0.7

Provide gp5-HT1B (Cavia porcellus) Kd reading for CN1CCN(c2cc(N3CCOC3=O)cc3ccoc23)CC1 [Example 47a] .
0.225

Provide gp5-HT1B (Cavia porcellus) Kd reading for `CN1CCN(c2cc(N3CCCC3=O)ccc2F)CC1` .
2

Provide gp5-HT1B (Cavia porcellus) Kd reading for COC(=O)N1CCN(c2cc(N3CCN(C)CC3)c3occc3c2)S1(=O)=O [Example 49a] .
0.23

====

Target: gp5-HT1B (Cavia porcellus, UniProt O08892)
Sequence (O08892 whole entry): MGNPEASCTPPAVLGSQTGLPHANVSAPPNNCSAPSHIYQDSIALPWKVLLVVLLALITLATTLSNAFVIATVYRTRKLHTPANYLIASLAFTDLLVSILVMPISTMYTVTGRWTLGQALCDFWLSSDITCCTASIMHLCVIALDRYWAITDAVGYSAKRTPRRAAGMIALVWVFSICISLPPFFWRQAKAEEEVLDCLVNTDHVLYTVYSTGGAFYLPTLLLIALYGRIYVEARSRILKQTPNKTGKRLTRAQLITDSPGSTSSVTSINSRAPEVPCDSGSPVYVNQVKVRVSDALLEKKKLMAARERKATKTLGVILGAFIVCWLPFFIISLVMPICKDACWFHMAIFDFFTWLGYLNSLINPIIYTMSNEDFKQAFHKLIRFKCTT
Assay: Guinea-pig iliac artery functional assay at gp5-HT1B (GPI)
Assay type: cell-based
Set-up: from tissue; host or cells: guinea-pig common iliac artery segments
Conditions: classified as antagonism, agonism or no effect at 10 μM, against 5-nonyloxytryptamine contraction; monohydrochloride salt
Description: Protocol for Determination of Efficacy at gp5-HT1B Receptors in the Guinea-Pig Iliac Artery. (GPI) Guinea-pig common iliac artery segments (1.0-1.5 mm long) from Dunkin-Harley guinea-pigs (250 g-500 g) were mounted under normalized tension in oxygenated (95% O2; 5% CO2) Krebs-Henseleit solution (NaCl, 118 mM; KCl, 4.7 mM; MgSO4, 1.2 mM; KH2PO4, 1.2 mM; NaHCO3, 25 mM; CaCl2, 2.5 mM; D-glucose, 11 mM; and with indomethacin, 10 μM). […]
RECORDED ENDPOINT: (GPI) Guinea-Pig Iliac Artery functional assay at gp5-HT1B

Look over these answered cases.
CN1CCN(c2cc(N3CCCC3=O)ccc2F)CC1 [Example 30]    Antagonist
CN1CCN(c2cc(N3CCNS3(=O)=O)cc3ccoc23)CC1 [Example 50a]    Antagonist
COc1ccc(N2CCCC2=O)cc1N1C[C@@H](C)N[C@@H](C)C1 [Example 13a]    Antagonist
COc1ccc(N2CCOC2=O)cc1N1C[C@@H](C)N[C@@H](C)C1 [Example 13d]    No effect
COC(=O)N1CCN(c2cc(N3CCN(C)CC3)c3occc3c2)S1(=O)=O [Example 49a]    Antagonist

Answer with the recorded (GPI) Guinea-Pig Iliac Artery functional assay at gp5-HT1B for the molecule listed here: COc1ccc(N2CCCC2=O)cc1N(C)CCN(C)C [13f, reference compound]
No effect

Answer with the recorded (GPI) Guinea-Pig Iliac Artery functional assay at gp5-HT1B for the molecule listed here: COc1ccc(N2CCOC2=O)cc1N1CCN(C)CC1 [Example 13b]
Antagonist

Answer with the recorded (GPI) Guinea-Pig Iliac Artery functional assay at gp5-HT1B for the molecule listed here: COc1ccc(N2CCCC2=O)cc1N1CCN(C)CC1 [Example 5a]
Antagonist

====

Give measured pKd for each item. Keep answers brief.
Please note pKd is a logarithmic value: minus log10 of concentration in mol/L. Answer with that number alone.

Provide human h5-HT1B receptor (Homo sapiens, UniProt P28222) pKd reading for CN1CCN(c2cc(N3CCCC3=O)cc3ccoc23)CC1 [Example 45] .
5.35

Provide human h5-HT1B receptor (Homo sapiens, UniProt P28222) pKd reading for COC(=O)N1CCN(c2cc(N3CCN(C)CC3)c3occc3c2)S1(=O)=O [Example 49a] .
5.74

Provide human h5-HT1B receptor (Homo sapiens, UniProt P28222) pKd reading for CN1CCN(c2cc(N3CCOC3=O)cc3ccoc23)CC1 [Example 47a] .
4.87

====

biological target: UniProt:O08892; assay: Guinea-pig iliac artery functional assay at gp5-HT1B (GPI); format: cell-based; design: from tissue; host or cells: guinea-pig common iliac artery segments; conditions: classified as antagonism, agonism or no effect at 10 μM, against 5-nonyloxytryptamine contraction; monohydrochloride salt
RECORDED ENDPOINT: (GPI) Guinea-Pig Iliac Artery functional assay at gp5-HT1B

COc1ccc(N2CCCC2=O)cc1N1CCC(N(C)C)CC1 [13e, reference compound]    Antagonist
CN1CCN(c2cc(N3CCCC3=O)cc3ccoc23)CC1    Antagonist
CN1CCN(c2cc(N3CCOC3=O)cc3ccoc23)CC1 [Example 47a]    Antagonist
COc1ccc(N2CCCC2=O)cc1N1CCCN(C)CC1 [Example 13c]    Antagonist
